Source of measurements: PubChem BioAssay (EPA / NIEHS)

Read-out: CFLAR gene, CFLAR (gene 8837)
protocol: LTEA_HepaRG_CFLAR: Life Technologies and Expression Analysis (LTEA) Assay for CFLAR gene using HepaRG (AID 2283455)
settings: mRNA level, 48 h; actives raise or lower the signal
The source made the active and inactive calls. Rule for the calls: active = hit-call score of the fitted dose curve at least 0.9, where 1 is the maximum; inactive = score below 0.9.
Outcomes: active, inactive

- C[C@]12CC[C@@H]3c4ccc(O)cc4C[C@@H](CCCCCCCCCS(=O)CCCC(F)(F)C(F)(F)F)[C@H]3[C@@H]1CC[C@@H]2O (stereo not given in full): inactive
- C#C[C@]1(O)CC[C@H]2[C@@H]3CCC4=CC(=O)CC[C@@H]4[C@H]3CC[C@@]21CC: inactive
- CCCCOC(=O)C(C)Oc1ccc(Oc2ccc(C(F)(F)F)cn2)cc1 (stereo not given): inactive
- O=C(Nc1ccc([N+](=O)[O-])cc1Cl)c1cc(Cl)ccc1O: active
- O=C(O)C1(C(=O)Nc2ccc(Cl)cc2Cl)CC1: inactive
